Target: human recombinant ROCK II (Homo sapiens, UniProt O75116)
Construct: recombinant human ROCK-II residues 11-552; His6 (N)
Sequence (O75116 11-552): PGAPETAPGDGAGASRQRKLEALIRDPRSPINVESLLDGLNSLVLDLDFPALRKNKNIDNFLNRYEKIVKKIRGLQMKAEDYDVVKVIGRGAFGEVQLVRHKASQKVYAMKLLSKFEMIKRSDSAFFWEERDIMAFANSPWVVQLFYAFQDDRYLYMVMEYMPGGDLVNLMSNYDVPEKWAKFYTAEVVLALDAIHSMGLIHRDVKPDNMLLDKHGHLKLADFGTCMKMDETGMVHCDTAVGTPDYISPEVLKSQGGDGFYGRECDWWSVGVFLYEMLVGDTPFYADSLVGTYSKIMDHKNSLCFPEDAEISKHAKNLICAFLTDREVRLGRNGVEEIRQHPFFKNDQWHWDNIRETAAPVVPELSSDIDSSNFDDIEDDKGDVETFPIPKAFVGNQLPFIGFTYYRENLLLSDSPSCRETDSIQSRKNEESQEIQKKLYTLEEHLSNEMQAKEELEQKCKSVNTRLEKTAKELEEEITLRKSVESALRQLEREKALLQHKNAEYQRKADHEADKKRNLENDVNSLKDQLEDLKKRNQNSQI
Assay: Determination of Rho kinase inhibition (ROCK II, Caliper peptide phosphorylation assay)
Settings: respective form (salt or free base) as obtained in the examples, 60 min at 32° C.
Experimental: To measure Rho-kinase inhibition, IC50 values were determined according to the following protocol: Active human recombinant ROCK II (N-terminal His6-tagged recombinant human ROCK-II residues 11-552) was purchased from Millipore GmbH, Schwalbach, Germany. […] Phosphorylation of the substrate peptide was then detected on a Caliper 3000 instrument essentially as described by Pommereau et al (J. Biomol. Screening 2004, 9(5), 409-416). […]
pIC50: −log10 of the molar value.
value type: pIC50

[[record]]
compound = "CCC(N)[C@]1(C2CCS(=O)(=O)CC2)CC[C@H](Oc2cc3cc[nH]c(=O)c3cc2Cl)CC1 (some centres unmarked)"
assayed_system = "human recombinant ROCK II (Homo sapiens, UniProt O75116)"
value_type = "pIC50"
result = "≥ 8.00"

[[record]]
compound = "CCC(N)C1(CC(C)C)CCC(Oc2cc3cc[nH]c(=O)c3cc2Cl)CC1 (single isomer, unassigned) [Example 29]"
assayed_system = "human recombinant ROCK II (Homo sapiens, UniProt O75116)"
value_type = "pIC50"
result = "7.00 to 8.00"

[[record]]
compound = "CC[C@]1(C(N)CF)CC[C@@H](Oc2cc3cc[nH]c(=O)c3cc2Cl)CC1 (some centres unmarked)"
assayed_system = "human recombinant ROCK II (Homo sapiens, UniProt O75116)"
value_type = "pIC50"
result = "≥ 8.00"

[[record]]
compound = "NC(c1ccccc1)[C@]1(CC2CC2)CC[C@H](Oc2cc3cc[nH]c(=O)c3cc2Cl)CC1 (some centres unmarked)"
assayed_system = "human recombinant ROCK II (Homo sapiens, UniProt O75116)"
value_type = "pIC50"
result = "6.00 to 7.00"

[[record]]
compound = "CCC(N)[C@]1(C(C)C)CC[C@H](Oc2cc3c(F)c[nH]c(=O)c3cc2Cl)CC1 (some centres unmarked)"
assayed_system = "human recombinant ROCK II (Homo sapiens, UniProt O75116)"
value_type = "pIC50"
result = "7.00 to 8.00"

[[record]]
compound = "CC[C@]1(C(C)N)CC[C@@H](Oc2cc3c(Cc4ccccc4)c[nH]c(=O)c3cc2Cl)CC1 (some centres unmarked)"
assayed_system = "human recombinant ROCK II (Homo sapiens, UniProt O75116)"
value_type = "pIC50"
result = "6.00 to 7.00"

[[record]]
compound = "CCC(N)[C@]1(CC)CC[C@H](Oc2cc3cc[nH]c(=O)c3cc2C)CC1 (some centres unmarked)"
assayed_system = "human recombinant ROCK II (Homo sapiens, UniProt O75116)"
value_type = "pIC50"
result = "6.00 to 7.00"

[[record]]
compound = "CCC(N)[C@]1(CC)CC[C@H](Oc2cc3cc[nH]c(=O)c3cc2Cl)CC1 (some centres unmarked)"
assayed_system = "human recombinant ROCK II (Homo sapiens, UniProt O75116)"
value_type = "pIC50"
result = "≥ 8.00"

[[record]]
compound = "CCCC1(C(N)CC)CCC(Oc2cc3cc[nH]c(=O)c3cc2Cl)CC1 (single isomer, unassigned)"
assayed_system = "human recombinant ROCK II (Homo sapiens, UniProt O75116)"
value_type = "pIC50"
result = "≥ 8.00"

[[record]]
compound = "CCC[C@]1(C(C)N)CC[C@@H](Oc2cc3cc[nH]c(=O)c3cc2Cl)CC1 (some centres unmarked)"
assayed_system = "human recombinant ROCK II (Homo sapiens, UniProt O75116)"
value_type = "pIC50"
result = "≥ 8.00"

[[record]]
compound = "CCCC(N)[C@]1(C(C)C)CC[C@H](Oc2cc3cc[nH]c(=O)c3cc2Cl)CC1 (some centres unmarked)"
assayed_system = "human recombinant ROCK II (Homo sapiens, UniProt O75116)"
value_type = "pIC50"
result = "7.00 to 8.00"

